The following compounds are shown together with reported IC50 values.
biological target: IDH1 R132H (Homo sapiens, UniProt O75874, R132H); test: IDH1 R132H enzymatic assay (NADPH depletion coupled to diaphorase/resazurin); assay type: biochemical; details: enzymatic inhibition, IDH1 R132H
Sequence (O75874 whole entry R132H): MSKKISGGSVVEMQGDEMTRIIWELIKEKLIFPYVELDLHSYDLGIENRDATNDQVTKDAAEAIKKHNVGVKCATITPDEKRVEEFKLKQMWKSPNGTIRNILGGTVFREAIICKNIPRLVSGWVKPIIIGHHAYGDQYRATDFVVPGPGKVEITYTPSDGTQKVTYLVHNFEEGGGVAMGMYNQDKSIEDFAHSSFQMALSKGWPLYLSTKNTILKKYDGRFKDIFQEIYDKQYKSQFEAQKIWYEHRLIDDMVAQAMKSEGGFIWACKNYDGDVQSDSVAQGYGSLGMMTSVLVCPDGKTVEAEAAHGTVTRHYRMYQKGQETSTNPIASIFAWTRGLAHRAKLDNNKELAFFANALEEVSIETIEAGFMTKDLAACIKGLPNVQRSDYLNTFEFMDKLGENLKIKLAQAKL

Reference set, count: 2
compound="CCc1cccc(CC)c1-n1c(CC(C)C)c(C(=O)N2CCNCC2)cc(-c2csc(-c3ccc(Cl)cc3)n2)c1=O [Compound 505]" test_value="< 300 nM"
compound="CCOc1ccc(F)cc1-n1c(C=C(C)C)c(C(=O)N2CCNCC2)cc(-c2nc(-c3ccc(C(F)(F)F)nc3)cs2)c1=O [Compound 477]" test_value="< 300 nM"

Exercise: Tell me the measured IC50 of COc1ccc(F)cc1-n1c(C=C(C)C)c(C(=O)N2CCNCC2)cc(-c2ccn(-c3ccc(C(F)(F)F)cc3)n2)c1=O [Compound 532] , please.
Key: 300 to 1000 nM

* * *

target: IDH1 R132H (Homo sapiens, UniProt O75874, R132H); test: IDH1 R132H enzymatic assay (NADPH depletion coupled to diaphorase/resazurin); type: biochemical; settings: enzymatic inhibition, IDH1 R132H
pIC50: −log10 of the molar value.
ENDPOINT: pIC50

compound=CCOc1ncc(F)cc1-n1c(C=C(C)C)c(C(=O)N2CCNCC2)cc(-c2nc(-c3ccc(C(F)F)cn3)cs2)c1=O test_value="6.00 to 6.52"
compound=CCc1cccc(CC)c1-n1c(CC(C)C)c(C(=O)N2CCNCC2)cc(-c2nc(-c3ccc(Cl)c(Cl)c3)c(C)s2)c1=O test_value="6.00 to 6.52"

// switching to the query molecule
Exercise: Record request: pIC50 value, item `CCc1cccc(CC)c1-n1c(CC2CCC2)c(C(=O)N2CCNCC2)cc(-c2nc(-c3ccc(Cl)cc3)cs2)c1=O`
Key: > 6.52

* * *

Measured IC50, listed per entry.
molecular target: IDH1 R132H (Homo sapiens, UniProt O75874, R132H); assay: IDH1 R132H enzymatic assay (NADPH depletion coupled to diaphorase/resazurin); assay type: biochemical; details: IDH1 R132H enzymatic inhibition, IC50 class

Exercise: Quick one: IC50 of `CCc1cccc(CC)c1-n1c(CC2CCCC2)c(C(=O)N2CCNCC2)cc(-c2nc(-c3ccc(Cl)cc3)cs2)c1=O` ?
Key: < 300 nM

Exercise: Given the entry CCc1cccc(CC)c1-n1c2c(cc(-c3nc(-c4ccc(Cl)cc4)cs3)c1=O)C(=O)N(C)C2C(C)C (centres unmarked) , report its measured IC50.
Key: 1000 to 5000 nM

* * *

biological target: IDH1 R132C (Homo sapiens, UniProt O75874, R132C); test: IDH1 R132C enzymatic assay (NADPH depletion coupled to diaphorase/resazurin); format: biochemical; details: IDH1 R132C enzymatic inhibition, IC50 class
Sequence (O75874 whole entry R132C): as the sequence (O75874 whole entry R132H) above, with H132C counted along it
pIC50: −log10 of the molar value.
ENDPOINT: pIC50

Consider the following illustrative entries.
compound="CCc1cccc(CC)c1-n1c(CC(C)C)c(C(=O)N2CCNC[C@H]2C)cc(-c2nc(-c3ccc(Cl)cc3)cs2)c1=O [Compound 267]" test_value="> 6.52"
compound="Cn1nccc1-n1c2c(cc(-c3nc(-c4ccc(Cl)cc4)cs3)c1=O)C(=O)CC(C)(C)C2 [Compound 382]" test_value="5.30 to 6.00"
compound="COc1ccc(OC)c(-n2c3c(cc(-c4cccc(-c5ccc(Cl)cc5)c4)c2=O)C(=O)CC(C)(C)C3)c1 [Compound 111]" test_value="4.70 to 5.30"
compound="Cc1ccc(C(=O)O)cc1-n1c2c(cc(-c3nc(-c4ccc(Cl)cc4)cs3)c1=O)C(=O)CC(C)(C)C2 [Compound 166]" test_value="4.70 to 5.30"
compound="CCOc1ccc(C)cc1-n1c(CC(C)C)c(C(=O)N2CCNCC2)cc(-c2nc(-c3ccc(C(F)F)cc3)cs2)c1=O [Compound 685]" test_value="> 6.52"

--- query ---
Exercise: I'd like to know its pIC50. The compound in question is CCc1cccc(CC)c1-n1c(C2CCNCC2)c(C(=O)N2CCNCC2)cc(-c2nc(-c3ccc(Cl)cc3)cs2)c1=O [Compound 670]
Key: < 4.70

* * *

molecular target: IDH1 R132C (Homo sapiens, UniProt O75874, R132C); assay: IDH1 R132C enzymatic assay (NADPH depletion coupled to diaphorase/resazurin); format: biochemical; conditions: enzymatic inhibition, IDH1 R132C
pIC50: −log10 of the molar value.
ENDPOINT: pIC50

Exercise: Report pIC50 for CCOc1ncc(C)cc1-n1c(C=C(C)C)c(C(=O)N2CCNCC2)cc(-c2nc(-c3ccc(Cl)cc3)cs2)c1=O [Compound 544] please.
Key: > 6.52

* * *

target: IDH1 R132H (Homo sapiens, UniProt O75874, R132H); assay: IDH1 R132H enzymatic assay (NADPH depletion coupled to diaphorase/resazurin); format: biochemical; conditions: enzymatic inhibition, IDH1 R132H
Measured IC50, listed per entry.

Recorded results for 3 compounds are shown here.
compound=Cc1nonc1-n1c2c(cc(-c3nc(-c4ccc(Cl)cc4)cs3)c1=O)C(=O)CC(C)(C)C2 endpoint=IC50 test_value="> 20000 nM"
compound=Cc1ccc(-n2c3c(cc(-c4nc(-c5ccc(Cl)cc5)cs4)c2=O)C(=O)CC(C)(C)C3)c(Cl)c1 endpoint=IC50 test_value="> 20000 nM"
compound=CCOc1ncc(F)cc1-n1c(C=C(C)C)c(C(=O)N2CCNCC2)cc(-c2nc(-c3ccc(C(F)(F)F)nc3)cs2)c1=O endpoint=IC50 test_value="< 300 nM"

Exercise: I am curious: what IC50 value has been reported for `O=C1CCCc2c1cc(-c1nc(-c3ccc(Cl)cc3)cs1)c(=O)n2-c1cccnc1` ?
Key: > 20000 nM

* * *

Collected pIC50 values appear next to each entry.
target: IDH1 R132H (Homo sapiens, UniProt O75874, R132H); assay: IDH1 R132H enzymatic assay (NADPH depletion coupled to diaphorase/resazurin); assay type: biochemical; details: IDH1 R132H enzymatic inhibition, IC50 class
pIC50: −log10 of the molar value.

compound="CCc1cccc(CC)c1-n1c(C(C)C)c(C(=O)NC[C@@H](C)O)cc(-c2nc(-c3ccc(Cl)cc3)cs2)c1=O [Compound 101]" endpoint=pIC50 test_value="5.30 to 6.00"
compound="CC1(C)CC(=O)c2cc(-c3nc(-c4ccc(Cl)cc4)cs3)c(=O)n(-c3ccccc3C(C)(C)C)c2C1 [Compound 241]" endpoint=pIC50 test_value="5.30 to 6.00"
compound="CCc1cccc(CC)c1-n1c(CC(C)C)c(C(=O)NCCO)cc(-c2nc(-c3ccc(Cl)cc3)cs2)c1=O [Compound 4]" endpoint=pIC50 test_value="> 6.52"
compound="CC(C)COc1ccccc1-n1c2c(cc(-c3nc(-c4ccc(Cl)cc4)cs3)c1=O)C(=O)CC(C)(C)C2 [Compound 256]" endpoint=pIC50 test_value="6.00 to 6.52"
compound="CCc1cccc(CC)c1-n1c(CC(C)C)c(C(=O)NCC(O)c2ccccc2)cc(-c2nc(-c3ccc(Cl)cc3)cs2)c1=O (stereo not shown) [Compound 232]" endpoint=pIC50 test_value="6.00 to 6.52"
compound="CCc1cccc(CC)c1-n1c2c(cc(-c3nc(-c4ccc(Cl)cc4)cs3)c1=O)C(=O)NC2 [Compound 74]" endpoint=pIC50 test_value="5.30 to 6.00"
compound="COc1ccc(OC)c(-n2c3c(cc(-c4cn(-c5ccc(Cl)cc5)cn4)c2=O)C(=O)CC(C)(C)C3)c1 [Compound 65]" endpoint=pIC50 test_value="< 4.70"
compound="CCc1cccc(CC)c1-n1c2c(cc(-c3nc(-c4cccc(C)c4)cs3)c1=O)C(=O)CC(C)(C)C2 [Compound 240]" endpoint=pIC50 test_value="4.70 to 5.30"
compound="COc1ccc(Cl)c(-n2c3c(cc(-c4nc(-c5ccc(Cl)cc5)cs4)c2=O)C(=O)CC(C)(C)C3)c1 [Compound 395]" endpoint=pIC50 test_value="6.00 to 6.52"
compound="CCOc1ccc(Cl)cc1-n1c(C=C(C)C)c(C(=O)N2CCNCC2)cc(-c2nc(-c3ccc(C(F)F)cc3)cs2)c1=O [Compound 378]" endpoint=pIC50 test_value="> 6.52"

Exercise: Item: CCc1cccc(C)c1-n1c2c(cc(-c3nc(-c4ccc(Cl)cc4)cs3)c1=O)C(=O)CCC2 [Compound 628] Test system: IDH1 R132H (Homo sapiens, UniProt O75874, R132H) Read-out: pIC50 Value: ?
Key: 5.30 to 6.00

Exercise: Any idea what pIC50 came out for CCc1cccc(CC)c1-n1c(C)c(C(=O)NC2CCCNC2)cc(-c2nc(-c3ccc(Cl)cc3)cs2)c1=O (stereo not shown) [Compound 114] on IDH1 R132H (Homo sapiens, UniProt O75874, R132H)?
Key: 5.30 to 6.00

Exercise: Any idea what pIC50 came out for CC1(C)CC(=O)c2cc(-c3nc(-c4ccc(Cl)cc4)cs3)c(=O)n(-c3ccccc3Cl)c2C1 [Compound 167] on IDH1 R132H (Homo sapiens, UniProt O75874, R132H)?
Key: > 6.52

Exercise: Form field - read-out: pIC50; system: IDH1 R132H (Homo sapiens, UniProt O75874, R132H); submitted item: CCc1cccc(CC)c1-n1c2c(cc(-c3nc(-c4ccc(F)cc4)cs3)c1=O)C(=O)CC(C)(C)C2 [Compound 148]
Key: 6.00 to 6.52

Exercise: Requested read-out pIC50, target or system IDH1 R132H (Homo sapiens, UniProt O75874, R132H), entry CC(C)=Cc1c(C(=O)N2CCNCC2)cc(-c2nc(-c3ccc(Cl)cc3)cs2)c(=O)n1-c1cc(Cl)ccc1Cl [Compound 359]
Key: > 6.52

Exercise: // map COc1ncccc1-n1c2c(cc(-c3nc(-c4ccc(Cl)cc4)cs3)c1=O)C(=O)CC(C)(C)C2 [Compound 661] to recorded pIC50 (system: IDH1 R132H (Homo sapiens, UniProt O75874, R132H))
Key: 5.30 to 6.00

Exercise: Missing value: pIC50, IDH1 R132H (Homo sapiens, UniProt O75874, R132H), entry COc1ccc(Cl)c(-n2c(C=C(C)C)c(C(=O)N3CCNCC3)cc(-c3ccn(-c4ccc(Cl)cc4)n3)c2=O)c1 [Compound 389] . Fill in?
Key: > 6.52

Exercise: Form: Entry = CCOc1ccc(F)cc1-n1c(C=C(C)C)c(C(=O)N2CCNCC2)cc(-c2nc(-c3ccc(Cl)cc3)cs2)c1=O [Compound 381] | System = IDH1 R132H (Homo sapiens, UniProt O75874, R132H) | pIC50 = ____
Key: > 6.52

Exercise: Short answer please: pIC50, IDH1 R132H (Homo sapiens, UniProt O75874, R132H), entry Cc1ccccc1-n1c2c(cc(-c3nc(-c4ccc(Cl)cc4)cs3)c1=O)C(=O)CC(C)(C)C2 [Compound 22]
Key: 5.30 to 6.00

Exercise: What value of pIC50 on IDH1 R132H (Homo sapiens, UniProt O75874, R132H) does CCc1cccc(CC)c1-n1c(CC(C)C)c(C(=O)N2CCNCC2)cc(-c2nc(-c3ccc(Cl)cc3Cl)c(C)s2)c1=O [Compound 637] have?
Key: 6.00 to 6.52
